Data origin: patent US12649733B2

System: H146 cells
Assay: H146 cell viability, MTT assay
Format: cell-based
Conditions: Homo sapiens, NCI-H146, 48 h, 48 h exposure
pIC50: −log10 of the molar value.
measure: pIC50

Cc1cc(N(CCN2CCOCC2)c2nc(C(=O)O)cs2)nnc1Nc1nc2ccccc2s1 [Example 41] = ≤ 5.01
Cc1cc(N(CCCO)c2nc(C(=O)O)cs2)nnc1Nc1nc2ccccc2s1 [Example 49] = < 4.82

Moving on to another compound below.
Problem: For the compound shown here, Cc1cc(N(C)c2nc(C(=O)O)c(C3CCN(C(=O)OC(C)(C)C)CC3)s2)nnc1Nc1nc2ccccc2s1 [Example 84] , give the reported pIC50.
Result: < 4.82

----------
Test system: H146 cells
Assay: H146 cell viability, MTT assay
Format: cell-based
Settings: Homo sapiens, NCI-H146, 48 h, 48 h exposure
# maps each entry to its IC50

Example entries and their recorded answers appear below.
COCC(O)CCN(c1cc(C)c(Nc2nc3ccccc3s2)nn1)c1nc(C(=O)O)cs1 (stereo not drawn) = > 15 µM
Cc1cc(N(C)c2nc(C(=O)O)c(C3CCNCC3)s2)nnc1Nc1nc2ccccc2s1 = > 15 µM
O=C(O)c1csc(Nc2nnc(Nc3nc4ccccc4s3)c3c2CCC3)n1 = ≥ 12.7 µM
C=Cc1sc(N(C)c2cc(C)c(Nc3nc4ccccc4s3)nn2)nc1C(=O)O = > 15 µM
Cc1cc(N(CCCN2CCOCC2)c2nc(C(=O)O)cs2)nnc1Nc1nc2ccccc2s1 = > 15 µM

Kindly review the next compound as well.
Problem: Look up IC50 for this compound: COCCCN(c1cc(C)c(Nc2nc3ccccc3s2)nn1)c1nc(C(=O)O)cs1
Result: ≥ 9.62 µM

----------
Target: BCLXL (Homo sapiens, UniProt Q07817, V10N/V9A)
Sequence (Q07817 with tags, fused parts or gaps V9A/V10N): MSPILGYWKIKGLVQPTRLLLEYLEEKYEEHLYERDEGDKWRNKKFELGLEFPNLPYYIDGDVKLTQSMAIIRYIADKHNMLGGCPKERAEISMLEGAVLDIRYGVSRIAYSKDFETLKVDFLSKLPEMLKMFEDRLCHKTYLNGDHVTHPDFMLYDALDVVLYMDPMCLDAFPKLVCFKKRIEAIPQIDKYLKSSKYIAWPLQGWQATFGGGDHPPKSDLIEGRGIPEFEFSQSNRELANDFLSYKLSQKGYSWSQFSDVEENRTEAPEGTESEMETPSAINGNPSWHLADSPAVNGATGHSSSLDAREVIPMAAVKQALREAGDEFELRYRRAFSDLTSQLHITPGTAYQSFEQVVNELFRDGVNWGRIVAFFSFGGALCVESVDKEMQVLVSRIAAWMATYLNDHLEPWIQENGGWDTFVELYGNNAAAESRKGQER
Assay: Fluorescence polarisation assay (PUMA-based probe displacement); further: 20 nM protein, 10 nM fluorescent probe
Experimental: Fluorescence polarization measures the rotation of a fluorescing species in solution, the larger the molecule the more polarized the fluorescence emission. [[…]] […] An 11-point serial dilution of each compound was prepared in DMSO, the final buffer conditions were 10 mM 4-(2-hydroxyethyl)-1-piperazineethanesulfonic acid [HEPES], 150 mM NaCl, 0.05% Tween 20, pH 7.4 and 5% DMSO. […] The KI values were determined from the IC50 values according to Cer et al, Nucleic Acids Res, 2009, Jul. […]
The compounds listed here are annotated with their log10(Ki).
Give log10 of Ki, with Ki taken in nM.

Study these solved cases before continuing.
Cc1cc(N(C)c2nc(C(=O)O)c(C3CCN(S(C)(=O)=O)CC3)s2)nnc1Nc1nc2ccccc2s1 [Example 94] = 1.83
CC(=O)N1CCC(c2sc(N(C)c3cc(C)c(Nc4nc5ccccc5s4)nn3)nc2C(=O)O)CC1 [Example 97] = 2.11
Cc1cc(N(C)c2nc(C(=O)O)c(C3CCN(S(=O)(=O)c4ccccc4)CC3)s2)nnc1Nc1nc2ccccc2s1 [Example 92] = 1.83
Cc1c(-c2sc(Nc3ccc(Nc4nc5ccccc5s4)nn3)nc2C(=O)O)cnn1CC12CC3CC(CC(C3)C1)C2 [Example 32] = 2.41
Cc1cc(N(C)c2nc(C(=O)O)c(C3CCN(S(=O)(=O)Cc4ccccc4)CC3)s2)nnc1Nc1nc2ccccc2s1 [Example 95] = 1.38
CC(C)c1cc(Nc2nc(C(=O)O)cs2)nnc1Nc1nc2ccccc2s1 [Example 5] = 2.26
CC(C)c1cc(N(C)c2nc(C(=O)O)cs2)nnc1Nc1nc2ccccc2s1 [Example 34] = 0.95
Cc1cc(N(C)c2nc(C(=O)O)c(C3CN(C(=O)Cc4ccccc4)C3)s2)nnc1Nc1nc2ccccc2s1 [Example 138] = 1.46
COCc1c(Nc2nc3ccccc3s2)nnc(Nc2nc(C(=O)O)cs2)c1C [Example 28] = 2.11

--- query ---
Problem: So what's the measured log10(Ki) for this one? Cc1c(Nc2nc(C(=O)O)c(CCCOc3ccc(C#CCN(C)C)cc3F)s2)nnc(Nc2nc3ccccc3s2)c1C [Example 3]
Result: 0.28
